system: AR (androgen receptor) protein in VCaP cells (Homo sapiens, UniProt P10275)
Construct: endogenous in cells; host or cells: VCaP cells
Sequence (P10275 whole entry): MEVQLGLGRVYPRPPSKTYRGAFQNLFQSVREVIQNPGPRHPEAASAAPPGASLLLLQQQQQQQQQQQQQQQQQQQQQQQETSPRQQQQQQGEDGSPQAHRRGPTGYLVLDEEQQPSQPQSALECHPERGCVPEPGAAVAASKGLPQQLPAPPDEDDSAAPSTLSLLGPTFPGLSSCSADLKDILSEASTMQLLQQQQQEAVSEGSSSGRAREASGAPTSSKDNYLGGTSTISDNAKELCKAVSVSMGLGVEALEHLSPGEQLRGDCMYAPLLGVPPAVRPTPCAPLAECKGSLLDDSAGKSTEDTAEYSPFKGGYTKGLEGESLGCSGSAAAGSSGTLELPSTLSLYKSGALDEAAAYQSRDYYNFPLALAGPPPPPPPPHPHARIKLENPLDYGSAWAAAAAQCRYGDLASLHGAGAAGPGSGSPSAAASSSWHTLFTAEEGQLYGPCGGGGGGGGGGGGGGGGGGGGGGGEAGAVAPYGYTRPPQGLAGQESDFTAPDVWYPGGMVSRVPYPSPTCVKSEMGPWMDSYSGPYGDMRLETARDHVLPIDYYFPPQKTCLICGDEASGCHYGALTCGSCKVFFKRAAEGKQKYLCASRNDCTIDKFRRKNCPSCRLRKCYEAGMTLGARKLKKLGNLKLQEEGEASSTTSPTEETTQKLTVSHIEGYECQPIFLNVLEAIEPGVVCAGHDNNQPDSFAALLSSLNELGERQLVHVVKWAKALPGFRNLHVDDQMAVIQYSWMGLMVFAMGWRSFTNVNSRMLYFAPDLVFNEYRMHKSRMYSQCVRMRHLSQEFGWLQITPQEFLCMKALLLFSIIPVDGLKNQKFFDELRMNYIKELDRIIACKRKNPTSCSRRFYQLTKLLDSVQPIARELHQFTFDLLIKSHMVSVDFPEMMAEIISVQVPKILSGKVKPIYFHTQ
test.details: VCAP AR Degradation Assay
Format: cell-based
condition: 24 h, AR ELISA, top concentration 5 μM, read-out: Y (lowest measured AR level normalized to DMSO control, AR degradation efficiency)
Method: VCAP AR Degradation Assay. Test compounds were pre-dispensed into a Corning CellBind 96-well clear bottom plate (Cat #3300) using an acoustic dispenser to make a 10-point concentration series at 1:3 dilution for each compound. The final top concentration of each compound was 5 μM. DMSO at a final concentration of 0.1% was used as a control. […] AR levels in compound-treated wells were normalized to that of DMSO control and expressed as percent of control (PoC) (y). […]
Measured remaining activity at up to 5 µM, listed per entry.

Below: 2 compounds and their reported remaining activity at up to 5 µM.
{"columns": ["compound", "system", "remaining activity at up to 5 µM"],
 "data": [
  ["C[C@@H]1C[C@H](OCCC[C@H]2CC[C@H](N3C(=S)N(c4ccc(C#N)c(C(F)(F)F)c4)C(=O)C3(C)C)CC2)C[C@H](C)N1CC(=O)Nc1cccc2c(C3CCC(=O)NC3=O)nn(C)c12 (stereo partly drawn)", "AR (androgen receptor) protein in VCaP cells (Homo sapiens, UniProt P10275)", "0 to 25%"],
  ["Cn1nc(C2CCC(=O)NC2=O)c2cccc(NC(=O)CN3CCN(CCCO[C@H]4CC[C@H](N5C(=S)N(c6ccc(C#N)c(C(F)(F)F)c6)C(=O)C5(C)C)CC4)C[C@@H]3C(F)(F)F)c21 (stereo partly drawn)", "AR (androgen receptor) protein in VCaP cells (Homo sapiens, UniProt P10275)", "0 to 25%"]
]}

Attention now turns to another entry.
Query: Using the record for Cn1nc(C2CCC(=O)NC2=O)c2cccc(NC(=O)CN3CCN(CCC[C@H]4CC[C@H](N5C(=S)N(c6ccc(C#N)c(C(F)(F)F)c6)C(=O)C5(C)C)CC4)C[C@@H]3C(F)(F)F)c21 (stereo partly drawn) , state its measured remaining activity at up to 5 µM.
Result: 25 to 30%

---

system: AR (androgen receptor) protein in VCaP cells (Homo sapiens)
Construct: endogenous in cells; host or cells: VCaP cells
test.details: VCAP AR Degradation Assay
Type: cell-based
condition: 24 h, AR ELISA, top concentration 5 μM, read-out: Y (lowest measured AR level normalized to DMSO control, AR degradation efficiency)
Procedure: VCAP AR Degradation Assay. Test compounds were pre-dispensed into a Corning CellBind 96-well clear bottom plate (Cat #3300) using an acoustic dispenser to make a 10-point concentration series at 1:3 dilution for each compound. The final top concentration of each compound was 5 μM. DMSO at a final concentration of 0.1% was used as a control. […] AR levels in compound-treated wells were normalized to that of DMSO control and expressed as percent of control (PoC) (y). […]
Quick list: remaining activity at up to 5 µM per entry.

{"columns": ["compound", "remaining activity at up to 5 µM"],
 "data": [
  ["C[C@@H]1CN(CCCC[C@H]2CC[C@H](N3C(=S)N(c4ccc(C#N)c(C(F)(F)F)c4)C(=O)C3(C)C)CC2)C[C@H](C)N1CC(=O)Nc1cccc2c(C3CCC(=O)NC3=O)nn(C)c12 (stereo partly drawn)", "0 to 25%"],
  ["Cn1nc(C2CCC(=O)NC2=O)c2cccc(NC(=O)CN3CCC(CCO[C@H]4CC[C@H](N5C(=S)N(c6cnc(C#N)c(C(F)(F)F)c6)C(=O)C5(C)C)CC4)C(F)(F)C3)c21 (stereo partly drawn)", "0 to 25%"]
]}

# next compound below
Query: Name the recorded remaining activity at up to 5 µM of the compound listed here: C[C@@H]1CN(CCCO[C@H]2CC[C@H](N3C(=S)N(c4ccc(C#N)c(C(F)(F)F)c4)C(=O)C3(C)C)CC2)C[C@H](C)N1CC(=O)Nc1cccc2c(C3CCC(=O)NC3=O)nn(C)c12 (stereo partly drawn)
Result: 25 to 30%

---

system: AR (androgen receptor) protein in VCaP cells (Homo sapiens)
Construct: endogenous in cells; host or cells: VCaP cells
test.details: VCAP AR Degradation Assay
Format: cell-based
condition: 24 h, AR ELISA, concentration of compound when AR level = 50% of DMSO control
The compounds listed here are annotated with their DC50.

Field: example entries. Status: answers known.
{"columns": ["compound", "DC50"],
 "data": [
  ["Cn1nc(C2CCC(=O)NC2=O)c2cccc(NC(=O)CN3CCN(CCC[C@H]4CC[C@H](N5C(=S)N(c6ccc(C#N)c(C(F)(F)F)c6)C(=O)C5(C)C)CC4)C[C@@H]3C(F)(F)F)c21 (stereo partly drawn)", "5 to 20 nM"],
  ["C[C@@H]1C[C@H](OCCC[C@H]2CC[C@H](N3C(=S)N(c4ccc(C#N)c(C(F)(F)F)c4)C(=O)C3(C)C)CC2)C[C@H](C)N1CC(=O)Nc1cccc2c(C3CCC(=O)NC3=O)nn(C)c12 (stereo partly drawn)", "20 to 100 nM"]
]}

Query: Quote DC50 reported for C[C@@H]1CN(CCC[C@H]2CC[C@H](N3C(=S)N(c4cnc(C#N)c(C(F)(F)F)c4)C(=O)C3(C)C)CC2)C[C@H](C)N1CC(=O)Nc1cccc2c(C3CCC(=O)NC3=O)nn(C)c12 (stereo partly drawn) please.
Result: 2 to 5 nM

---

system: AR (androgen receptor) protein in VCaP cells (Homo sapiens)
Construct: endogenous in cells; host or cells: VCaP cells
test.details: VCAP AR Degradation Assay
Assay type: cell-based
condition: 24 h, AR ELISA, concentration of compound when AR level = 50% of DMSO control
Structures can show the parent of a compound that is named as a salt.
# DC50 per record follows

The examples below pair each entry with its known result.
{"columns": ["compound", "system", "DC50"],
 "data": [
  ["Cn1nc(C2CCC(=O)NC2=O)c2cccc(NC(=O)CN3CCC(CCO[C@H]4CC[C@H](N5C(=S)N(c6cnc(C#N)c(C(F)(F)F)c6)C(=O)C5(C)C)CC4)C(F)(F)C3)c21 (stereo partly drawn)", "AR (androgen receptor) protein in VCaP cells (Homo sapiens)", "< 2 nM"],
  ["C[C@@H]1CN(CCO[C@H]2CC[C@H](N3C(=S)N(c4cnc(C#N)c(Cl)c4)C(=O)C3(C)C)CC2)C[C@H](C)N1CC(=O)Nc1cccc2c(C3CCC(=O)NC3=O)nn(C)c12 (stereo partly drawn) [Cmpd 6, hydrochloride]", "AR (androgen receptor) protein in VCaP cells (Homo sapiens)", "< 2 nM"],
  ["C[C@@H]1C[C@H](OCCC[C@H]2CC[C@H](N3C(=S)N(c4cnc(C#N)c(C(F)(F)F)c4)C(=O)C3(C)C)CC2)C[C@H](C)N1CC(=O)Nc1cccc2c(C3CCC(=O)NC3=O)nn(C)c12 (stereo partly drawn)", "AR (androgen receptor) protein in VCaP cells (Homo sapiens)", "5 to 20 nM"],
  ["C[C@@H]1CN(CCCO[C@H]2CC[C@H](N3C(=S)N(c4cnc(C#N)c(C(F)(F)F)c4)C(=O)C3(C)C)CC2)C[C@H](C)N1CC(=O)Nc1cccc2c(C3CCC(=O)NC3=O)nn(C)c12 (stereo partly drawn) [Cmpd 7, hydrochloride]", "AR (androgen receptor) protein in VCaP cells (Homo sapiens)", "< 2 nM"],
  ["C[C@@H]1CN(CCCO[C@H]2CC[C@H](N3C(=S)N(c4ccc(C#N)c(C(F)(F)F)c4)C(=O)C3(C)C)CC2)C[C@H](C)N1CC(=O)Nc1cccc2c(C3CCC(=O)NC3=O)nn(C)c12 (stereo partly drawn)", "AR (androgen receptor) protein in VCaP cells (Homo sapiens)", "< 2 nM"],
  ["C[C@@H]1C[C@@H](CCO[C@H]2CC[C@H](N3C(=S)N(c4ccc(C#N)c(C(F)(F)F)c4)C(=O)C3(C)C)CC2)C[C@H](C)N1CC(=O)Nc1cccc2c(C3CCC(=O)NC3=O)nn(C)c12 (stereo partly drawn) [Cmpd 12, hydrochloride]", "AR (androgen receptor) protein in VCaP cells (Homo sapiens)", "2 to 5 nM"],
  ["Cn1nc(C2CCC(=O)NC2=O)c2cccc(NC(=O)CN3CCN(CCO[C@H]4CC[C@H](N5C(=S)N(c6ccc(C#N)c(C(F)(F)F)c6)C(=O)C5(C)C)CC4)C[C@@H]3C(F)(F)F)c21 (stereo partly drawn) [Cmpd 14, hydrochloride]", "AR (androgen receptor) protein in VCaP cells (Homo sapiens)", "< 2 nM"],
  ["Cn1nc(C2CCC(=O)NC2=O)c2cccc(NC(=O)CN3CCN(CCCO[C@H]4CC[C@H](N5C(=S)N(c6ccc(C#N)c(C(F)(F)F)c6)C(=O)C5(C)C)CC4)C[C@@H]3C(F)(F)F)c21 (stereo partly drawn)", "AR (androgen receptor) protein in VCaP cells (Homo sapiens)", "< 2 nM"]
]}

Now let's try a different one.
Query: For Cn1nc(C2CCC(=O)NC2=O)c2cccc(NC(=O)CN3CCN(CCC[C@H]4CC[C@H](N5C(=S)N(c6cnc(C#N)c(C(F)(F)F)c6)C(=O)C5(C)C)CC4)C[C@@H]3C(F)(F)F)c21 (stereo partly drawn) , write its DC50.
Result: 2 to 5 nM

Measured values drawn from patent US12227490B2 for this set.
